Test system: Escherichia coli TOP10
Assay: shrunken log2 fold change of peptide-encoding DNA abundance (4.5 h post-induction vs induction); higher = less antimicrobial activity (less host growth inhibition)
Conditions: time post-induction: 4.5 h; library: site-saturation at positions 5, 18, 19, 20
Here, each record is paired with measured shrunken log2 fold change data.
Could you keep your reply to the number by itself?

Some sequences with recorded shrunken log2 fold change:
ordered.residues: RRIRNRPPRLPRPRPRPGVCPRP
property.measured: shrunken log2 fold change
recorded.value: 0.241
//
ordered.residues: RRIRPRPPRLPRPRPRPMQNPRP
property.measured: shrunken log2 fold change
recorded.value: 0.201
//
ordered.residues: RRIRKRPPRLPRPRPRPCAIPRP
property.measured: shrunken log2 fold change
recorded.value: 0.101

Request: # lookup: shrunken log2 fold change of `RRIRGRPPRLPRPRPRPLIDPRP`
Result: 1.36

Request: # lookup: shrunken log2 fold change of `RRIRFRPPRLPRPRPRPFTIPRP`
Result: -0.313

Request: # lookup: shrunken log2 fold change of `RRIRCRPPRLPRPRPRPKSRPRP`
Result: 0.0706

----------
Tested on: Escherichia coli TOP10
Experiment: shrunken log2 fold change of peptide-encoding DNA abundance (4.5 h post-induction vs induction); higher = less antimicrobial activity (less host growth inhibition)
Conditions: time post-induction: 4.5 h; library: site-saturation at positions 5, 18, 19, 20
property.measured: shrunken log2 fold change
Could you keep your reply to the number by itself?

Some sequences with recorded shrunken log2 fold change:
ordered.residues: RRIRERPPRLPRPRPRPRQCPRP
assay.system: Escherichia coli TOP10
property.measured: shrunken log2 fold change
recorded.value: 0.123
--
ordered.residues: RRIRSRPPRLPRPRPRPEFCPRP
assay.system: Escherichia coli TOP10
property.measured: shrunken log2 fold change
recorded.value: 0.132
--
ordered.residues: RRIRWRPPRLPRPRPRPCEDPRP
assay.system: Escherichia coli TOP10
property.measured: shrunken log2 fold change
recorded.value: 0.115

We next turn to a different sequence, shown below.
Request: # lookup: shrunken log2 fold change of `RRIRYRPPRLPRPRPRPQLWPRP`
Result: 0.0782

----------
System: Escherichia coli TOP10;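 further: peptides expressed intracellularly from a pBAD plasmid library in pooled LB shake-flask culture, induced with 0.3% L-arabinose, DNA abundance read by NGS, three biological replicates, DESeq2 with apeglm shrinkage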
Test: shrunken log2 fold change of peptide-encoding DNA abundance (4.5 h post-induction vs induction); higher = less antimicrobial activity (less host growth inhibition)
Details: time post-induction: 4.5 h; library: site-saturation at positions 5, 18, 19, 20
Use 1 (yes) when the recorded shrunken log2 fold change is no lower than -0.01; use 0 (no) when it is lower.

Before answering, review these 5 worked examples.
ordered.residues: RRIRMRPPRLPRPRPRPDFRPRP
assigned.label: 1 (yes)
//
ordered.residues: RRIRCRPPRLPRPRPRPCEFPRP
assigned.label: 0 (no)
//
ordered.residues: RRIRFRPPRLPRPRPRPSHNPRP
assigned.label: 0 (no)
//
ordered.residues: RRIRLRPPRLPRPRPRPRQHPRP
assigned.label: 0 (no)
//
ordered.residues: RRIRHRPPRLPRPRPRPANCPRP
assigned.label: 0 (no)

Request: Reported shrunken log2 fold change reaches at least -0.01 for `RRIRERPPRLPRPRPRPYDGPRP` ?
Result: 0 (no)

Request: Reported shrunken log2 fold change reaches at least -0.01 for `RRIRDRPPRLPRPRPRPENPPRP` ?
Result: 1 (yes)

Request: Reported shrunken log2 fold change reaches at least -0.01 for `RRIRWRPPRLPRPRPRPCICPRP` ?
Result: 1 (yes)
